Assay: Approximate solubility of technical grade active ingredients in the adjuvant solvents (shaker, iterative approach)
Settings: Solvents I, II and III taken together
readout type: solubility in the three solvents, in words

- compound: "COCC(=O)N(c1c(C)cccc1C)C(C)C(=O)OC (stereo not shown) [Metalaxyl]"
  value observed: "greatest solubility"
- compound: "CC1(C)[C@H](C(=O)O[C@H](C#N)c2cccc(Oc3ccccc3)c2)[C@@H]1/C=C(\\Cl)C(F)(F)F"
  value observed: "greatest solubility"

====

Test: Approximate solubility of technical grade active ingredients in the adjuvant solvents (shaker, iterative approach)
Settings: Solvent I (formula 1(a)); % solids by weight; shaken 1 hour; minimum concentration tested 2.5%
Procedure: Solubility studies were conducted using three materials to determine their ability to dissolve various biocide active ingredients: Solvent I-formula 1(a); Solvent II-formula 1(b); and Solvent III-formula 3(a). Active ingredients were chosen from three classes of biocides and primarily reflected difficult to dissolve actives. The following biocides were evaluated. The approximate solubility of each technical grade active ingredient was determined in each of the solvents. […]
readout type: approximate solubility range in Solvent I

- compound: "CS(=O)(=O)c1ccc(C(=O)C2C(=O)CCCC2=O)c([N+](=O)[O-])c1 [Mesotrione]"
  value observed: "<2.5%"
- compound: "CC1(C)[C@H](C(=O)O[C@H](C#N)c2cccc(Oc3ccccc3)c2)[C@@H]1/C=C(\\Cl)C(F)(F)F [Gamma cyhalothrin]"
  value observed: ">80%"
- compound: "COc1c(Cl)ccc(Cl)c1C(=O)O [Dicamba]"
  value observed: "<10%"
- compound: "O=C(O)CNCP(=O)(O)O [Glyphosate]"
  value observed: "<2.5%"
